molecular target: Glucocorticoid receptor (Homo sapiens); assay: Agonist activity against Human glucocorticoid receptor(hGR) expressed in CV-1 cells
attribute measured: pEC50
Friendly reminder that pEC50 comes from taking -log10 of the concentration in mol/L.

Exam item: Item CC(=O)O[C@]1(C(C)=O)CC[C@H]2[C@@H]3C[C@H](C)C4=CC(=O)CC[C@]4(C)[C@H]3CC[C@@]21C [MEDROXYPROGESTERONE ACETATE] with Glucocorticoid receptor (Homo sapiens) - pEC50?
Marked response: 8.00

###

target: Glucocorticoid receptor (Homo sapiens, UniProt P04150)
In this section, each of the compounds is paired with its reported IC50.
Include the unit right after the number.

CC1=CC(C)(C)Nc2ccc3c(c21)C(c1ccc(Cl)cc1)Oc1ccccc1-3 (stereo not drawn) | 339 nM
CC1=CC(C)(C)Nc2ccc3c(c21)C(c1ccc(C)cc1)Oc1ccccc1-3 (stereo not drawn) | 294 nM
CC1=CC(C)(C)Nc2ccc3c(c21)C(c1cccc(C(F)(F)F)c1)Oc1ccccc1-3 (stereo not drawn) | 505 nM
CC1=CC(C)(C)Nc2ccc3c(c21)C(c1ccc(Cl)c(Cl)c1)Oc1ccccc1-3 (stereo not drawn) | 80 nM
CC1=CC(C)(C)Nc2ccc3c(c21)C(c1cc(Cl)cc(Cl)c1)Oc1ccccc1-3 (stereo not drawn) | 225 nM

Exam item: Item CC1=CC(C)(C)Nc2ccc3c(c21)C(c1ccc(Cl)c(F)c1)Oc1ccccc1-3 (stereo not drawn) with Glucocorticoid receptor (Homo sapiens, UniProt P04150) - IC50?
Marked response: 171 nM

Exam item: Item CC1=CC(C)(C)Nc2ccc3c(c21)C(c1ccc(C)c(F)c1)Oc1ccccc1-3 (stereo not drawn) with Glucocorticoid receptor (Homo sapiens, UniProt P04150) - IC50?
Marked response: 185 nM

Exam item: Item CC1=CC(C)(C)Nc2ccc3c(c21)C(c1cccc(Cl)c1)Oc1ccccc1-3 (stereo not drawn) with Glucocorticoid receptor (Homo sapiens, UniProt P04150) - IC50?
Marked response: 136 nM

###

In this section, each of the compounds is paired with its reported Ki.
Target chain: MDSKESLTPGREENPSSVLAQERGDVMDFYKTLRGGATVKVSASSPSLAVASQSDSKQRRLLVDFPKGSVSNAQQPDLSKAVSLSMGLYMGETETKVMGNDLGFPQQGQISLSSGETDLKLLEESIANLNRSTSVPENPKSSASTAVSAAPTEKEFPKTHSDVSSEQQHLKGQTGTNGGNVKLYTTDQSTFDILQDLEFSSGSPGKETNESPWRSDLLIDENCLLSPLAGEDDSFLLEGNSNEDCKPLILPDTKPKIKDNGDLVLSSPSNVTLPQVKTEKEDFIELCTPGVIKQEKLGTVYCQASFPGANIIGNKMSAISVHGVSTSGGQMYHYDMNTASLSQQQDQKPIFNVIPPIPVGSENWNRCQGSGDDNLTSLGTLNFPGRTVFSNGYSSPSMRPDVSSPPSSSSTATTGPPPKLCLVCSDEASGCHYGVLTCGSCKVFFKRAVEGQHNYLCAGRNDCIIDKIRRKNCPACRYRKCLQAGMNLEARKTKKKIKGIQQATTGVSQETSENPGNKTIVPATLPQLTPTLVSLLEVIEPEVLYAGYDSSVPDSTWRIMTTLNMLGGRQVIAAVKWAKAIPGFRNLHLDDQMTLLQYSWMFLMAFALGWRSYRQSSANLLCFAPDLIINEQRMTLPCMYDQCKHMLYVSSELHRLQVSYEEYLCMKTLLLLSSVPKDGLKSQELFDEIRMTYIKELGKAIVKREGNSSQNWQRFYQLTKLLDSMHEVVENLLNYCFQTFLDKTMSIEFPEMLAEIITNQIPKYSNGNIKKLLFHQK
Your answer should be a plain number; it is taken to be in µM.

Examples with their reported Ki follow.
CC1=CC(C)(C)Nc2ccc3c(c21)C(c1ccc(Cl)c(Cl)c1)Oc1ccccc1-3 (centres undefined) | 0.059
CC1=CC(C)(C)Nc2ccc3c(c21)C(c1cccc(Cl)c1)Oc1ccccc1-3 (centres undefined) | 0.058
CC(=O)O[C@]1(C(C)=O)CC[C@H]2[C@@H]3C[C@H](C)C4=CC(=O)CC[C@]4(C)[C@H]3CC[C@@]21C [MEDROXYPROGESTERONE ACETATE] | 0.0132

Exam item: Quick check: Ki of CC1=CC(C)(C)Nc2ccc3c(c21)C(c1ccc(C)cc1)Oc1ccccc1-3 (centres undefined) ?
Marked response: 0.08

###

biological target: Progesterone receptor (Homo sapiens)
Sequence (P06401 whole entry): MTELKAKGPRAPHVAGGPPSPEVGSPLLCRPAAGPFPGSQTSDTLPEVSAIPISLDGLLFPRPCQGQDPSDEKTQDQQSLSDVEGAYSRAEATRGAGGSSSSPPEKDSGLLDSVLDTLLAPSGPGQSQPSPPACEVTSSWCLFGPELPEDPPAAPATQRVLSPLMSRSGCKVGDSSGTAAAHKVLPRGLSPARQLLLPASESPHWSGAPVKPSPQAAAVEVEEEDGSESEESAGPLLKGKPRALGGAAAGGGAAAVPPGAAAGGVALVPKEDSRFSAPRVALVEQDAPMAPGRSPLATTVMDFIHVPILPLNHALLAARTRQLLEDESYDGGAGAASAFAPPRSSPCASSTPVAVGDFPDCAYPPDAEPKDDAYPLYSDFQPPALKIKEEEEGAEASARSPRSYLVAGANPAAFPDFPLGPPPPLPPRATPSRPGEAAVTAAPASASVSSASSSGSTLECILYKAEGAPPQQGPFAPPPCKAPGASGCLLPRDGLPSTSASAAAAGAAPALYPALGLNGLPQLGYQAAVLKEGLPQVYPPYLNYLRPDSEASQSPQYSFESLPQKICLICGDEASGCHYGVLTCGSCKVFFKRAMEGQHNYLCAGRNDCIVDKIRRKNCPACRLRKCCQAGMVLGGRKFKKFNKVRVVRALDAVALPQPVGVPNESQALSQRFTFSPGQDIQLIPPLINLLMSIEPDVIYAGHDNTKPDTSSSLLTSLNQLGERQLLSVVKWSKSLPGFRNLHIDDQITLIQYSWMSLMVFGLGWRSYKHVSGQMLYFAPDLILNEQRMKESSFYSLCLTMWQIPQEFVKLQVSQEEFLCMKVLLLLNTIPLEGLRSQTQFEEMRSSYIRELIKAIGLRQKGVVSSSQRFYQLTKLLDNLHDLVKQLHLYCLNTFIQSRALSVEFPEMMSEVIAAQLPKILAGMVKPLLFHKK
In this section, each of the compounds is paired with its reported Ki.
Your answer should be a plain number; it is taken to be in nM.

CC1=CC(C)(C)Nc2ccc3c(c21)C(c1cccc(Cl)c1)Oc1ccccc1-3 (centres undefined) | 0.43
CC1=CC(C)(C)Nc2ccc3c(c21)C(c1ccc(C(F)(F)F)cc1)Oc1ccccc1-3 (centres undefined) | 10.8
CC1=CC(C)(C)Nc2ccc3c(c21)C(c1cccc(Br)c1)Oc1ccccc1-3 (centres undefined) | 1.1
CC(=O)c1ccc(C2Oc3ccccc3-c3ccc4c(c32)C(C)=CC(C)(C)N4)cc1 (centres undefined) | 8.8
CC1=CC(C)(C)Nc2ccc3c(c21)C(c1ccc(Br)nc1)Oc1ccccc1-3 (centres undefined) | 3.9

Exam item: Item CC1=CC(C)(C)Nc2ccc3c(c21)C(c1cccc(C(F)(F)F)c1)Oc1ccccc1-3 (centres undefined) with Progesterone receptor (Homo sapiens) - Ki?
Marked response: 2.6

Exam item: Item CC1=CC(C)(C)Nc2ccc3c(c21)C(c1ccc(Cl)c(F)c1)Oc1ccccc1-3 (centres undefined) with Progesterone receptor (Homo sapiens) - Ki?
Marked response: 0.41

Exam item: Item CC1=CC(C)(C)Nc2ccc3c(c21)C(c1ccc(Cl)cc1)Oc1ccccc1-3 (centres undefined) with Progesterone receptor (Homo sapiens) - Ki?
Marked response: 0.7

Exam item: Item CC1=CC(C)(C)Nc2ccc3c(c21)C(c1cc(Cl)cc(Cl)c1)Oc1ccccc1-3 (centres undefined) with Progesterone receptor (Homo sapiens) - Ki?
Marked response: 1.7

###

Target: Androgen receptor (Homo sapiens)
Sequence (P10275 whole entry): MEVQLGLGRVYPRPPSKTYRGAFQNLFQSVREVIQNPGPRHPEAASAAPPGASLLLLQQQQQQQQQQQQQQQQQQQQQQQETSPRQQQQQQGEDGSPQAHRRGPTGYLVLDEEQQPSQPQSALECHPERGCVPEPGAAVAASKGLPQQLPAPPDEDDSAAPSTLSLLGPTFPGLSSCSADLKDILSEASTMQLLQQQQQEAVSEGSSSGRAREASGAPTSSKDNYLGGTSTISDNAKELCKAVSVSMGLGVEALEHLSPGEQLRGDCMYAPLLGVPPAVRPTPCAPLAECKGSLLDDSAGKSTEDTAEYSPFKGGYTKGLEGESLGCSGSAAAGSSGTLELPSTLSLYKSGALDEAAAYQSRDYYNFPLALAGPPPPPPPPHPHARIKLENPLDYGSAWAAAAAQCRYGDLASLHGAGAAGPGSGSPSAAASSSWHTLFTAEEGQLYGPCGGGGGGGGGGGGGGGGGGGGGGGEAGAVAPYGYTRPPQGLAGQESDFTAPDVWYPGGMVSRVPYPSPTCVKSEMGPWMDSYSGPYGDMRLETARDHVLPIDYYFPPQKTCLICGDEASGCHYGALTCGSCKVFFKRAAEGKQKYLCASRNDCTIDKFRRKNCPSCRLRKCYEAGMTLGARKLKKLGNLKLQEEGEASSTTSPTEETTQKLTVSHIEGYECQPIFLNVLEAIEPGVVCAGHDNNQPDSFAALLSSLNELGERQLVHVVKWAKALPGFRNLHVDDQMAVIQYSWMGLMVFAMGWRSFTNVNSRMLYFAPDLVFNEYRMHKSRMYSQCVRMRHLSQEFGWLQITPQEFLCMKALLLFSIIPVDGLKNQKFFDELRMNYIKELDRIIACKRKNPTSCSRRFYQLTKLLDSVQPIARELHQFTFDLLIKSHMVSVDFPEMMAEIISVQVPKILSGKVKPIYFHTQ
attribute measured: pIC50
Friendly reminder that pIC50 comes from taking -log10 of the concentration in mol/L.

Exam item: Quick check: pIC50 of CC1=CC(C)(C)Nc2ccc3c(c21)C(c1ccc(Br)cc1)Oc1ccccc1-3 (configuration not stated) ?
Marked response: 6.32

Exam item: Quick check: pIC50 of CC1=CC(C)(C)Nc2ccc3c(c21)C(c1ccc(Cl)c(F)c1)Oc1ccccc1-3 (configuration not stated) ?
Marked response: 5.66

Exam item: Quick check: pIC50 of CC1=CC(C)(C)Nc2ccc3c(c21)C(c1ccccc1)Oc1ccccc1-3 (configuration not stated) ?
Marked response: 6.13

Exam item: Quick check: pIC50 of CC1=CC(C)(C)Nc2ccc3c(c21)C(c1cccc(Cl)c1)Oc1ccccc1-3 (configuration not stated) ?
Marked response: 6.60

Exam item: Quick check: pIC50 of CC1=CC(C)(C)Nc2ccc3c(c21)C(c1ccc(Cl)cc1)Oc1ccccc1-3 (configuration not stated) ?
Marked response: 5.81

Exam item: Quick check: pIC50 of CC1=CC(C)(C)Nc2ccc3c(c21)C(c1ccc(C)cc1)Oc1ccccc1-3 (configuration not stated) ?
Marked response: 5.91

Exam item: Quick check: pIC50 of CC1=CC(C)(C)Nc2ccc3c(c21)C(c1cc(C)cc(Br)c1)Oc1ccccc1-3 (configuration not stated) ?
Marked response: 5.91
